# experiment summary: in vitro cytotoxicity bioassay, MDA-MB-435
# Format: cell-based
# cond: human, MDA-MB-435 cells (breast cancer cell line)
pIC50: −log10 of the molar value.
endpoint name: pIC50

# compound, pIC50
rows = [
    ("C=C1[C@@]23C(=O)O[C@H](C)[C@@]2(O)C(=O)O[C@]1(C)[C@@H](O)C1=C(C)[C@]2(C=CC(=O)OC2(C)C)CC[C@@]13C", "< 4.30"),
    ("C=C1[C@@]23C(=O)O[C@H](C)[C@]24O[C@@]2(C(=C)[C@]5(CCC(=O)OC5(C)C)C[C@@H](OC(C)=O)[C@]32C)[C@H](OC(C)=O)[C@@]1(C)OC4=O [Compound 10, 1,2-dihydro-acetoxydehydroaustin B]", "< 4.30"),
    ("C=C1C2(CC(O)C(=O)OC2(C)C)CC(OC(C)=O)C2(C)C13OC14C(=O)OC(C)(C(=C)C12C(=O)OC4C)C3OC(C)=O (centres unmarked) [Compound 1, 2-hydroacetoxydehydroaustin]", "< 4.30"),
]

Look up pIC50 for this compound: "C=C1[C@]2(C)C(=O)[C@]3(O)[C@@H](C)OC(=O)[C@]13[C@@]1(C)CC[C@@]3(C=CC(=O)OC3(C)C)C(C)=C1[C@@H]2OC(C)=O"
< 4.30

Look up pIC50 for this compound: "C=C1[C@@]2(C)C[C@H]3[C@]4(C)C=CC(=O)OC(C)(C)[C@H]4CC[C@]3(C)[C@]1(C(=O)OC)C(=O)[C@@](C)(O)C2=O"
< 4.30
